# System: KM12 colon
measuredParameter: GI50

Some solved cases for reference:
// Input: CC1(C)OC2C(COS(N)(=O)=O)SC(n3cnc4cncnc43)C2O1 (stereo not drawn) . Output its GI50 only.
> 100 µM

// Input: N[C@@H]1CCCC[C@@H]1N.O=P([O-])([O-])CN(CP(=O)([O-])[O-])CP(=O)([O-])[O-].[Pt+2] . Output its GI50 only.
> 100 µM

// Input: CC1=C(C(=O)Nc2ccc(Cl)c(Cl)c2)C(c2ccccc2O)NC(=O)N1 (stereo not drawn) . Output its GI50 only.
16.9 µM

// Input: Oc1[nH]c2cc(Cl)ccc2c1/C=c1/ccc2c(c1)N=C(c1cc(F)cc(F)c1)N=2 . Output its GI50 only.
2.2 µM

// Input: Cc1cc(C(O)CN(C)C)cc2c1ccc1cc(C(C)C)ccc12 (stereo not drawn) . Output its GI50 only.
1.82 µM

List reported GI50 for each of these compounds:
1. O=C(NCCCCCCCNC(=O)OCc1ccc2c(Cl)cc(Cl)c(O)c2n1)OCc1ccc2c(Cl)cc(Cl)c(O)c2n1
2. CSC1=NCC2(S1)c1ccccc1N(C(=O)OC(C)(C)C)C2N1CCCCC1 (stereo not drawn)
3. Oc1ccc(Cl)cc1Cc1cc(Cl)ccc1O
4. C=[CH][Sn]([CH]=C)([O]c1cccc2cccnc12)[O]c1cccc2cccnc12
5. CN1CCN(c2nc(-c3ccncc3)nc3sc4c(c23)CCCCCC4)CC1
6. CC/C=C\C/C=C\C[C@H](O)C/C=C1/C(=O)C=C[C@@H]1C/C=C\CCCC(=O)OC
7. CC1CC2(C)CC(=O)C1C1C(=O)N(CCN3CCCCC3)C(=O)C12 (stereo not drawn)

["1.18 µM", "> 100 µM", "3.06 µM", "3.2 µM", "13.4 µM", "1.8 µM", "> 100 µM"]

// Input: COc1cccc(C2NC(=S)NC(C)=C2C(=O)Nc2ccc(Cl)c(Cl)c2)c1 (stereo not drawn) . Output its GI50 only.
10.1 µM
